# Tested on: A498
# Protocol Summary: NCI tumour cell line growth inhibition, 48 h
Active and inactive are the calls of the source. Rule as the data show it: active = GI50 up to about 1.1 µM and inactive = higher.
Outcomes: active, inactive

[
  {
    "Compound": "CCOC(=O)[C@@]12C(C)=CC(=O)O[C@]1(C)C1C(=O)NC(=O)C12 (stereo partly specified)",
    "Assayed Target": "A498",
    "Assigned Class": "inactive"
  },
  {
    "Compound": "c1ccncc1",
    "Assayed Target": "A498",
    "Assigned Class": "inactive"
  },
  {
    "Compound": "Cc1cc(=O)oc2c(CN(CCCl)CCCl)c(O)ccc12",
    "Assayed Target": "A498",
    "Assigned Class": "inactive"
  },
  {
    "Compound": "COc1cc(C2S/C(=C/c3ccccc3)C(=O)N2c2cc(Cl)c(Cl)cc2Cl)cc(OC)c1OC (stereo unspecified)",
    "Assayed Target": "A498",
    "Assigned Class": "inactive"
  },
  {
    "Compound": "CN[C@@H]1C[C@H]2O[C@@](C)([C@@H]1OC)n1c3ccccc3c3c4c(c5c6ccccc6n2c5c31)C(=O)N[C@@H]4O",
    "Assayed Target": "A498",
    "Assigned Class": "active"
  },
  {
    "Compound": "O=C(O)[C@H](c1ccccc1)[C@@H](C(=O)O)c1ccccc1",
    "Assayed Target": "A498",
    "Assigned Class": "inactive"
  },
  {
    "Compound": "N#Cc1nc(-c2ccccn2)oc1N",
    "Assayed Target": "A498",
    "Assigned Class": "inactive"
  },
  {
    "Compound": "O=C1CCC2CCOc3ccc(O)c1c32 (stereo unspecified)",
    "Assayed Target": "A498",
    "Assigned Class": "inactive"
  },
  {
    "Compound": "COc1cccc(C2c3cc4c(cc3OC(N3CCCC3)C2C)OCO4)c1O (stereo unspecified)",
    "Assayed Target": "A498",
    "Assigned Class": "inactive"
  },
  {
    "Compound": "COC(=O)/C=C(\\S/C(=N\\n1cc(C(=O)OC)c(C(=O)OC)c1-c1ccc(C)cc1)c1ccc(C)cc1)C(=O)OC",
    "Assayed Target": "A498",
    "Assigned Class": "inactive"
  },
  {
    "Compound": "O/N=C/c1ccc(O)c(O)c1",
    "Assayed Target": "A498",
    "Assigned Class": "inactive"
  }
]
